Source listed as patent US20240254118A1.

Consider the following molecules and their measured CC50 readings.
System: HCT116 MTAP-deleted cells
procedure summary: Cell viability assay (CellTiter-Glo, 7 days), HCT116 MTAP-deleted
applied conditions: Homo sapiens, HCT-116, 168 h

>  <molecule>
Cn1ncc2c(N)nc3cc(F)c(C(=O)N(Cc4ccc(C(F)(F)F)cn4)N4CC5(CC5)COC4=O)cc3c21 [Example 320]

>  <CC50>
< 100 nM

$$$$
>  <molecule>
CN(C(=O)C1CC1)N(Cc1ccc(-c2cnn(C(F)F)c2)cc1F)C(=O)c1ccc2nc(N)c3cnn(C)c3c2c1 [Example 238]

>  <CC50>
< 100 nM

$$$$
>  <molecule>
Nc1nc2ccc(C(=O)N(Cc3ccc(C(F)(F)F)cn3)Nc3ncccn3)cc2c2ccccc12 [Example 76]

>  <CC50>
100 to 1000 nM

$$$$
>  <molecule>
Cn1ncc2c(N)nc3ccc(C(=O)N(Cc4ccccc4F)N4CCCC4=O)cc3c21 [Example 56]

>  <CC50>
< 100 nM

$$$$
>  <molecule>
CN(C(=O)C1CC(F)(F)C1)N(Cc1ccc(C(F)(F)F)cn1)C(=O)c1ccc2nc(N)c3cnn(C)c3c2c1 [Example 99]

>  <CC50>
< 100 nM

$$$$
>  <molecule>
CC(=O)N(C(C)C)N(Cc1ccc(C(F)(F)F)cn1)C(=O)c1ccc2nc(N)c3cnn(C)c3c2c1 [Example 203]

>  <CC50>
100 to 1000 nM

$$$$
>  <molecule>
CN(C(=O)C1CC1)N(Cc1ccc(-c2ccn(C(F)F)n2)cc1F)C(=O)c1ccc2nc(N)c3cnn(C)c3c2c1 [Example 312]

>  <CC50>
< 100 nM

$$$$
>  <molecule>
CC(=O)N(C)N(Cc1ccc(-c2cnn(C(F)F)c2)cc1F)C(=O)c1ccc2nc(N)c3cnn(C)c3c2c1 [Example 242]

>  <CC50>
< 100 nM

$$$$

---

Test system: SDMA signal (PRMT5 inhibition) in HCT116 MTAP-deleted cells
procedure summary: Symmetric di-methyl arginine image-based high content screen assay (SDMA assay), HCT116 MTAP-deleted
Assay type: cell-based
applied conditions: Homo sapiens, HCT-116, 72 h, read-out: EC50 (SDMA assay)
pEC50: −log10 of the molar value.
reported endpoint: pEC50

>  <structure smiles string>
CN(C(=O)Oc1ccccc1)N(Cc1ccc(C(F)(F)F)cn1)C(=O)c1ccc2nc(N)c3cnn(C)c3c2c1

>  <system under test>
SDMA signal (PRMT5 inhibition) in HCT116 MTAP-deleted cells

>  <result value>
8.30 to 9.00

$$$$

---

Consider the following molecules and their measured CC50 readings.
Tested on: HCT116 MTAP-deleted cells
procedure summary: Cell viability assay (CellTiter-Glo, 7 days), HCT116 MTAP-deleted
applied conditions: Homo sapiens, HCT-116, 168 h

>  <structure smiles string>
CC(=O)N(C)N(Cc1c(F)cc2c(ccn2C)c1F)C(=O)c1ccc2nc(N)c3cnn(C)c3c2c1

>  <CC50>
< 100 nM

$$$$
>  <structure smiles string>
CN1CCN(N(Cc2ccc(C(F)(F)F)cc2F)C(=O)c2ccc3nc(N)c4cnn(C)c4c3c2)C1=O

>  <CC50>
< 100 nM

$$$$
>  <structure smiles string>
CN(C(=O)c1ccnn1C)N(Cc1ccc(C(F)(F)F)cn1)C(=O)c1ccc2nc(N)c3cnn(C)c3c2c1

>  <CC50>
< 100 nM

$$$$
>  <structure smiles string>
CC(=O)N(CC(F)(F)F)N(Cc1ccc(C(F)(F)F)cn1)C(=O)c1ccc2nc(N)c3cnn(C)c3c2c1

>  <CC50>
100 to 1000 nM

$$$$
